Provenance of the data: the supplement of paper PMC4862054

Examples of compounds with documented normalised response follow.
Test system: BT-474
MEASUREMENT_PROTOCOL: normalised response (% of control), CellTox Green; higher = less cell death (100 = DMSO, 0 = benzethonium chloride kill control)
ASSAY_CONTEXT: incubation time: 72 h
Field format: number, assumed %, no unit text.

>>> value_reported("CN(C)C/C=C/C(=O)Nc1cc2c(Nc3ccc(F)c(Cl)c3)ncnc2cc1O[C@H]1CCOC1 [Afatinib] (1000 nM)")
52.4

Task: I'd like to know its normalised response. The compound in question is CN1CCC(COc2cnc(-c3cccc(Cn4nc(-c5cccc(C#N)c5)ccc4=O)c3)nc2)CC1 (10 nM)
Result: 94.1

---

Examples of compounds with documented normalised response follow.
Test system: BT-549
MEASUREMENT_PROTOCOL: normalised response (% of control), CellTiter-Glo; higher = more viable cells (100 = DMSO, 0 = benzethonium chloride kill control)
ASSAY_CONTEXT: incubation time: 72 h
Field format: number, assumed %, no unit text.

Solved cases below.
>>> value_reported("COc1cc(Nc2ncc3c(n2)-c2ccc(Cl)cc2C(c2c(F)cccc2OC)=NC3)ccc1C(=O)O [Alisertib] (1 nM)")
95.6
>>> value_reported("CCN1CCN(c2ccc(Nc3cc(N(C)C(=O)Nc4c(Cl)c(OC)cc(OC)c4Cl)ncn3)cc2)CC1 [NVP-BGJ398] (0.1 nM)")
99.8
>>> value_reported("Nc1ccn([C@@H]2O[C@H](CO)[C@@H](O)[C@@H]2O)c(=O)n1 [Cytarabine] (1000 nM)")
61.9

Task: I'd like to know its normalised response. The compound in question is Nc1nc(Cl)nc2c1ncn2[C@H]1C[C@H](O)[C@@H](CO)O1 [Cladribine] (100 nM)
Result: 77.7

---

Tested on: MDA-MB-231
MEASUREMENT_PROTOCOL: normalised viability (% of control), CellTiter-Blue; higher = more viable cells (about 100 = DMSO control)
ASSAY_CONTEXT: 1000 nM; incubation time: 72 h
Output true (1) for records whose normalised viability is lower than 80%, false (0) for records at or above 80%.

>>> group("OC[C@H]1O[C@@H](n2cnc3c2N=CNC[C@H]3O)C[C@@H]1O")
"false (0)"
>>> group("Clc1ccc(C(c2ccccc2Cl)C(Cl)Cl)cc1 (stereo unspecified)")
"false (0)"
>>> group("COc1cccc2cc(-c3nc([C@H]4CC[C@H](C(=O)O)CC4)n4ncnc(N)c34)[nH]c12")
"true (1)"

Now take the following compound into account.
Task: Bench note: check whether `Nc1nc(Cl)nc2c1ncn2[C@H]1C[C@H](O)[C@@H](CO)O1` shows normalised viability below 80%
Result: true (1)

---

Tested on: DU-4475
MEASUREMENT_PROTOCOL: normalised viability (% of control), CellTiter-Blue; higher = more viable cells (about 100 = DMSO control)
ASSAY_CONTEXT: 100 nM; incubation time: 72 h
Examples of molecules with documented normalised viability follow.
Field format: number, assumed %, no unit text.

>>> value_reported("OC[C@H]1O[C@@H](n2cnc3c2N=CNC[C@H]3O)C[C@@H]1O [Pentostatin]")
95
>>> value_reported("S=c1[nH]cnc2nc[nH]c12 [Mercaptopurine]")
87.8
>>> value_reported("C=CC[C@@H]1/C=C(\\C)C[C@H](C)C[C@H](OC)[C@H]2O[C@@](O)(C(=O)C(=O)N3CCCC[C@H]3C(=O)O[C@H](/C(C)=C/[C@@H]3CC[C@@H](O)[C@H](OC)C3)[C@H](C)[C@@H](O)CC1=O)[C@H](C)C[C@@H]2OC [Tacrolimus]")
99.5
>>> value_reported("COc1cccc2cc(-c3nc([C@H]4CC[C@H](C(=O)O)CC4)n4ncnc(N)c34)[nH]c12 [OSI-027]")
82.5
>>> value_reported("Clc1ccc(C(c2ccccc2Cl)C(Cl)Cl)cc1 (stereo unspecified) [Mitotane]")
93.9

With those in mind, consider the next molecule.
Task: Give DU-4475 normalised viability for C[C@]1(c2nc3c(C(N)=O)cccc3[nH]2)CCCN1 [Veliparib]
Result: 83.4

---

Examples of molecules with documented normalised viability follow.
Test system: MDA-MB-468
MEASUREMENT_PROTOCOL: normalised viability (% of control), CellTiter-Blue; higher = more viable cells (about 100 = DMSO control)
ASSAY_CONTEXT: 10000 nM; incubation time: 72 h
Respond with a number, then the unit of measure.

>>> value_reported("CN(C)C/C=C/C(=O)Nc1cc2c(Nc3ccc(F)c(Cl)c3)ncnc2cc1O[C@H]1CCOC1 [Afatinib]")
"11.5%"

Task: Give MDA-MB-468 normalised viability for CS(=O)(=O)c1ccc(C(=O)Nc2ccc(Cl)c(-c3ccccn3)c2)c(Cl)c1 [Vismodegib]
Result: 88.7%

Task: Give MDA-MB-468 normalised viability for `CN1CCC(COc2cnc(-c3cccc(Cn4nc(-c5cccc(C#N)c5)ccc4=O)c3)nc2)CC1`
Result: 5.99%

Task: Give MDA-MB-468 normalised viability for COc1cc(Nc2ncc3c(n2)-c2ccc(Cl)cc2C(c2c(F)cccc2OC)=NC3)ccc1C(=O)O [MLN8237]
Result: 35.2%

Task: Give MDA-MB-468 normalised viability for Clc1ccc(C(c2ccccc2Cl)C(Cl)Cl)cc1 (configuration not stated) [Mitotane]
Result: 102%

Task: Give MDA-MB-468 normalised viability for Nc1ccn([C@@H]2O[C@H](CO)[C@@H](O)[C@@H]2O)c(=O)n1 [Cytarabine]
Result: 57.2%

Task: Give MDA-MB-468 normalised viability for COc1cccc2cc(-c3nc([C@H]4CC[C@H](C(=O)O)CC4)n4ncnc(N)c34)[nH]c12 [OSI-027]
Result: 22%

---

System: MCF-10A
MEASUREMENT_PROTOCOL: normalised response (% of control), CellTox Green; higher = less cell death (100 = DMSO, 0 = benzethonium chloride kill control)
ASSAY_CONTEXT: incubation time: 72 h
MEASURED_PARAMETER: normalised response
Respond with a number, then the unit of measure.

Task: I'd like to know its normalised response. The molecule in question is OC[C@H]1O[C@@H](n2cnc3c2N=CNC[C@H]3O)C[C@@H]1O [Pentostatin] (1000 nM)
Result: 108%

Task: I'd like to know its normalised response. The molecule in question is CC[C@]1(O)C[C@@H]2CN(CCc3c([nH]c4ccccc34)[C@@](C(=O)OC)(c3cc4c(cc3OC)N(C)[C@H]3[C@@](O)(C(=O)OC)[C@H](OC(C)=O)[C@]5(CC)C=CCN6CC[C@]43[C@@H]65)C2)C1 [Vinblastine] (10 nM)
Result: 16.4%

Task: I'd like to know its normalised response. The molecule in question is OC[C@H]1O[C@@H](n2cnc3c2N=CNC[C@H]3O)C[C@@H]1O [Pentostatin] (100 nM)
Result: 94.7%

---

Examples of compounds with documented normalised viability follow.
Test system: DU-4475
MEASUREMENT_PROTOCOL: normalised viability (% of control), CellTiter-Blue; higher = more viable cells (about 100 = DMSO control)
ASSAY_CONTEXT: incubation time: 72 h
Field format: number, assumed %, no unit text.

Solved cases below.
>>> value_reported("COc1cccc2c1C(=O)c1c(O)c3c(c(O)c1C2=O)C[C@@](O)(C(=O)CO)C[C@@H]3O[C@H]1C[C@H](N)[C@H](O)[C@H](C)O1 [Doxorubicin] (100 nM)")
59.1
>>> value_reported("Cc1ccc(F)c(NC(=O)Nc2ccc(-c3cccc4[nH]nc(N)c34)cc2)c1 [Linifanib] (100 nM)")
103
>>> value_reported("N#CC[C@H](C1CCCC1)n1cc(-c2ncnc3[nH]ccc23)cn1 [Ruxolitinib] (1000 nM)")
112
>>> value_reported("Clc1ccc(C(c2ccccc2Cl)C(Cl)Cl)cc1 (stereo unspecified) [Mitotane] (1000 nM)")
87.9
>>> value_reported("Cc1c2oc3c(C)ccc(C(=O)N[C@@H]4C(=O)N[C@H](C(C)C)C(=O)N5CCC[C@H]5C(=O)N(C)CC(=O)N(C)[C@@H](C(C)C)C(=O)O[C@@H]4C)c3nc-2c(C(=O)N[C@@H]2C(=O)N[C@H](C(C)C)C(=O)N3CCC[C@H]3C(=O)N(C)CC(=O)N(C)[C@@H](C(C)C)C(=O)O[C@@H]2C)c(N)c1=O [Dactinomycin] (100 nM)")
0.64

With those in mind, consider the next compound.
Task: I'd like to know its normalised viability. The compound in question is C[C@]1(c2nc3c(C(N)=O)cccc3[nH]2)CCCN1 [Veliparib] (1000 nM)
Result: 82.1

---

System: BT-549
MEASUREMENT_PROTOCOL: normalised viability (% of control), CellTiter-Blue; higher = more viable cells (about 100 = DMSO control)
ASSAY_CONTEXT: 10 nM; incubation time: 72 h
MEASURED_PARAMETER: normalised viability
Respond with a number, then the unit of measure.

>>> value_reported("N#CC[C@H](C1CCCC1)n1cc(-c2ncnc3[nH]ccc23)cn1 [Ruxolitinib]")
"86.3%"
>>> value_reported("Nc1ccn([C@@H]2O[C@H](CO)[C@@H](O)[C@@H]2O)c(=O)n1 [Cytarabine]")
"87.2%"
>>> value_reported("S=c1[nH]cnc2nc[nH]c12 [Mercaptopurine]")
"115%"

Task: I'd like to know its normalised viability. The compound in question is CN1CC[C@H](c2c(O)cc(O)c3c(=O)cc(-c4ccccc4Cl)oc23)[C@H](O)C1 [Alvocidib]
Result: 92%

Task: I'd like to know its normalised viability. The compound in question is CS(=O)(=O)c1ccc(C(=O)Nc2ccc(Cl)c(-c3ccccn3)c2)c(Cl)c1 [Vismodegib]
Result: 102%
